# Conditions used: in n-heptane, 303.15 K

{"Molecule smiles": "O=Cc1ccc2ccccc2c1", "solubility (mole fraction)": 0.0255}

====

# Conditions used: in n-hexane, 303.15 K

{"Molecule smiles": "O=Cc1ccc2ccccc2c1", "solubility (mole fraction)": 0.0189}

====

# Conditions used: in n-butanol, 298.15 K
Quantity measured: solubility (mole fraction)

{"Molecule smiles": "O=Cc1ccc2ccccc2c1", "Number": 0.0561}

====

# Conditions used: in ethanol, 288.15 K
Quantity measured: solubility (mole fraction)

{"Molecule smiles": "O=Cc1ccc2ccccc2c1", "Number": 0.0245}

====

# Conditions used: in isopropanol, 293.15 K
Quantity measured: solubility (mole fraction)

{"Molecule smiles": "O=Cc1ccc2ccccc2c1", "Number": 0.0404}

====

# Conditions used: in methanol, 308.15 K
Quantity measured: solubility (mole fraction)

{"Molecule smiles": "O=Cc1ccc2ccccc2c1", "Quantity measured": "solubility (mole fraction)", "Number": 0.0696}

====

# Conditions used: in n-heptane, 298.15 K

{"Molecule smiles": "O=Cc1ccc2ccccc2c1", "solubility (mole fraction)": 0.0192}

====

# Conditions used: in n-heptane, 308.15 K

{"Molecule smiles": "O=Cc1ccc2ccccc2c1", "solubility (mole fraction)": 0.0345}

====

# Conditions used: in n-butanol, 293.15 K
Quantity measured: solubility (mole fraction)

{"Molecule smiles": "O=Cc1ccc2ccccc2c1", "Quantity measured": "solubility (mole fraction)", "Result": 0.0425}

====

# Conditions used: in methanol, 293.15 K

{"Molecule smiles": "O=Cc1ccc2ccccc2c1", "solubility (mole fraction)": 0.0163}

====

# Conditions used: in n-hexane, 298.15 K

{"Molecule smiles": "O=Cc1ccc2ccccc2c1", "solubility (mole fraction)": 0.0159}

====

# Conditions used: in isopropanol, 288.15 K

{"Molecule smiles": "O=Cc1ccc2ccccc2c1", "solubility (mole fraction)": 0.0201}

====

# Conditions used: in n-hexane, 313.15 K

{"Molecule smiles": "O=Cc1ccc2ccccc2c1", "solubility (mole fraction)": 0.0314}

====

# Conditions used: in n-hexane, 283.15 K

{"Molecule smiles": "O=Cc1ccc2ccccc2c1", "solubility (mole fraction)": 0.00727}

====

# Conditions used: in methanol, 298.15 K
Quantity measured: solubility (mole fraction)

{"Molecule smiles": "O=Cc1ccc2ccccc2c1", "Number": 0.0274}

====

# Conditions used: in n-butanol, 313.15 K
Quantity measured: solubility (mole fraction)

{"Molecule smiles": "O=Cc1ccc2ccccc2c1", "Number": 0.164}

====

# Conditions used: in n-heptane, 293.15 K
Quantity measured: solubility (mole fraction)

{"Molecule smiles": "O=Cc1ccc2ccccc2c1", "Result": 0.0164}

====

# Conditions used: in n-butanol, 308.15 K
Quantity measured: solubility (mole fraction)

{"Molecule smiles": "O=Cc1ccc2ccccc2c1", "Number": 0.117}

====

# Conditions used: in methanol, 283.15 K

{"Molecule smiles": "O=Cc1ccc2ccccc2c1", "solubility (mole fraction)": 0.00592}

====

# Conditions used: in ethanol, 293.15 K
Quantity measured: solubility (mole fraction)

{"Molecule smiles": "O=Cc1ccc2ccccc2c1", "Quantity measured": "solubility (mole fraction)", "Number": 0.0377}

====

# Conditions used: in ethanol, 308.15 K

{"Molecule smiles": "O=Cc1ccc2ccccc2c1", "solubility (mole fraction)": 0.191}

====

# Conditions used: in n-heptane, 283.15 K
Quantity measured: solubility (mole fraction)

{"Molecule smiles": "O=Cc1ccc2ccccc2c1", "Result": 0.00944}

====

# Conditions used: in isopropanol, 303.15 K

{"Molecule smiles": "O=Cc1ccc2ccccc2c1", "solubility (mole fraction)": 0.0908}

====

# Conditions used: in isopropanol, 283.15 K
Quantity measured: solubility (mole fraction)

{"Molecule smiles": "O=Cc1ccc2ccccc2c1", "Number": 0.0115}

====

# Conditions used: in n-hexane, 293.15 K

{"Molecule smiles": "O=Cc1ccc2ccccc2c1", "solubility (mole fraction)": 0.0128}

====

# Conditions used: in methanol, 303.15 K

{"Molecule smiles": "O=Cc1ccc2ccccc2c1", "solubility (mole fraction)": 0.0418}

Recorded values, source BigSolDB 2.1.
